protocol.summary: Bidirectional permeability in Caco-2 cells
Type: in vitro ADME, human
details: human, 5 μM, basolateral to apical, 120 minutes, read-out: permeability coefficient B-to-A
quantity.name: Papp B→A at 120 min, 5 μM (×10⁻⁶ cm/s)

Cc1cc(Cl)c(COc2cccc3c(-n4cc(F)cn4)cc(C)nc23)c(Cn2cccc(C#N)c2=O)n1; 38

====

protocol.summary: Pharmacokinetics, single oral gavage, 2 formulations, Wistar and Sprague-Dawley rats
Type: in vivo
details: female, Sprague-Dawley, rat, plasma, po, 75 mg/kg, Formulation 2, S-D (Female)
quantity.name: Tmax (min)

Cc1cc(Cl)c(COc2cccc3c(-n4cc(F)cn4)cc(C)nc23)c(Cn2cccc(C#N)c2=O)n1; 49.8
